Biological target: T1, recombinant human AXL extracellular domain, C-terminally His8-tagged (rhAXL-ECD) (human, UniProt P30530 26-451)
T1 construct: Made in CHO cells; also called (rh)AXL-ECD His8; human AXL ECD
T1 sequence: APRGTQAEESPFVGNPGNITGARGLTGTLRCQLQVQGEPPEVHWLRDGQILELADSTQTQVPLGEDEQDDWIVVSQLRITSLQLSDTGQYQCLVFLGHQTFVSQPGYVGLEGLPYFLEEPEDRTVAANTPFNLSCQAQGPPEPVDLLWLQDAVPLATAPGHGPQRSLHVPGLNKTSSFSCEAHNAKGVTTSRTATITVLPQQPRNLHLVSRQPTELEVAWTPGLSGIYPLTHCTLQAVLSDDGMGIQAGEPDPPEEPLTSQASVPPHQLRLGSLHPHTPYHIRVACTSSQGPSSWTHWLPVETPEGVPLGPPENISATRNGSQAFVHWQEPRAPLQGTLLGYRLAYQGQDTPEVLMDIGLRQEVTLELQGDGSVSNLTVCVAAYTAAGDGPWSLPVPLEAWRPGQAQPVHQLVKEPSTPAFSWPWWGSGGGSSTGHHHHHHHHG
Assay: SPR, VHH-Fc captured, AXL ECD flowed, single-concentration kinetics (estimate)
Hi there, I'd appreciate the recorded koff for every entry that follows.
Answers are plain numbers, in s⁻¹.

Completed entries (count: 3):
NRC-sdAb006-Fc (VHH-human IgG1 Fc fusion) (Fc fusion, VHH fused N-terminally to human IgG1 Fc; also called NRC-sdAb006-hIgG1; not shown: human IgG1 Fc) QVKLEESGGGLVQAGASLRLSCVASESIFGFNTMGWYRQAPGNERELVASISNSKRTMYADSVKGRFTISRDNAKNTVNLQMNNLKPEDTAVYYCRAWGIITSATVYWGQGTQVTVSS
0.0021
NRC-sdAb008-Fc (VHH-human IgG1 Fc fusion) (Fc fusion, VHH fused N-terminally to human IgG1 Fc; also called NRC-sdAb008-hIgG1; not shown: human IgG1 Fc) QVKLEESGGGLVQAGGSLRLSCAASGSSGMINTMGWYRQAPGKQRELVARRSTGGTTNYADSVKGRFTISRDDANNTVYLQMNSLKPEDTAVYYCAIIWRTSDLTGRFNTWGQGTQVTVSS
0.0082
NRC-sdAb005-Fc (VHH-human IgG1 Fc fusion) (Fc fusion, VHH fused N-terminally to human IgG1 Fc; also called NRC-sdAb005-hIgG1; not shown: human IgG1 Fc) QVKLEESGGGLAQAGGSLRLSCAASGSISSINTIGWFRQAPGKQRELVAASDSGANRNYADSVKGRFTISRDNAKNTVYLQMNNLKPEDTAIYYCRAWGTGTISTMYWGQGTQVTVSS
0.0041

Kindly review the next binder as well.
Task: Quick one: give measured koff for NRC-sdAb001-Fc (VHH-human IgG1 Fc fusion) (Fc fusion, VHH fused N-terminally to human IgG1 Fc, made in HEK293 cells; also called NRC-sdAb0001-Fc; NRC-sdAb001-hIgG1; not shown: human IgG1 Fc) QVKLEESGGGLVQAGGSLRLSCTASASISSFDIMGWYRQAPGKQRELVAAITTLDIANYRDSVKGRFTISRDNAKNTVYLQMDSLKPEDTARYHCAAFQSDQNYWGQGTQVTVSS
Result: 0.0072
